# system tested: PARP1 L713F-nLuc biosensor (HCT116) (UniProt P09874)
# Sequence (P09874 whole entry L713F, looked up): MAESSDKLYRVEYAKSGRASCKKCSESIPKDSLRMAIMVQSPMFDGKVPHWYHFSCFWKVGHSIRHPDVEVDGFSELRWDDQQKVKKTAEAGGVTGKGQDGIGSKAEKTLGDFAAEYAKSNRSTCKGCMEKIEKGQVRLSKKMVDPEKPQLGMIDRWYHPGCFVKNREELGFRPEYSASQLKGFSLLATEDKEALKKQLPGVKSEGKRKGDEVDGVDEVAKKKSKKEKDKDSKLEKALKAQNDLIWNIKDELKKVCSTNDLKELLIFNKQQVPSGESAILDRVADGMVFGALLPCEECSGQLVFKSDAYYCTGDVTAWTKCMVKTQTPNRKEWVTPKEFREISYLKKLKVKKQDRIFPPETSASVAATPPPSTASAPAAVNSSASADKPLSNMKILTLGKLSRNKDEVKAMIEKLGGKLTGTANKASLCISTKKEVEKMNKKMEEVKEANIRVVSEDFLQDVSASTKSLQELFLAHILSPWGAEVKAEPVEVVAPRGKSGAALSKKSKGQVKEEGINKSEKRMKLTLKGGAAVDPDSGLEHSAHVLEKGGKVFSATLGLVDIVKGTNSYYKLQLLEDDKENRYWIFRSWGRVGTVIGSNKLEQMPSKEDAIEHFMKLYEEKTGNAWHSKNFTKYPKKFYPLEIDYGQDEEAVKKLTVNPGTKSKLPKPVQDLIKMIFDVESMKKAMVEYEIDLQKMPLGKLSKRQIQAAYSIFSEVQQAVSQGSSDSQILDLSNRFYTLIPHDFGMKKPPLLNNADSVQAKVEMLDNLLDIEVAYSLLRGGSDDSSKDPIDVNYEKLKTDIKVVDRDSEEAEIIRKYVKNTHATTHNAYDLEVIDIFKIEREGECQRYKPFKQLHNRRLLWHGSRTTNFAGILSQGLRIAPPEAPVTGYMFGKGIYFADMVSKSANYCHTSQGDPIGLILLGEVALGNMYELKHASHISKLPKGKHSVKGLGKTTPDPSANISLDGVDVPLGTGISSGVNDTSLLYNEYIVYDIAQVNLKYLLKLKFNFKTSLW
# protocol details: PARP1 L713F-nLuc/akaLuc ratio relative to DMSO control (biosensor stabilization) (fold change); higher = more PARP1 biosensor stabilization (target engagement / stabilizer), active = hit call of the paper;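 active = log2 fold change beyond 2 SD from the library mean after excluding viability outliers; inactive = within 2 SD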
# condition label: stock concentration (mM; final µM = stock mM x 1): 10; 24 h
Where a name gives a salt, the structure may show the parent alone.
Outcome field: choose from True (active), False (inactive)

[
  {
    "compound": "CNCc1ccc(-c2[nH]c3cc(F)cc4c3c2CCNC4=O)cc1 [Rucaparib (Camsylate)]",
    "category": "True"
  },
  {
    "compound": "c1cc(SSc2ccns2)sn1",
    "category": "False"
  },
  {
    "compound": "O=C1NC(=O)[C@@H](c2cn3c4c(cccc24)CCC3)[C@@H]1c1c[nH]c2ccccc12 [Tivantinib (ARQ 197)]",
    "category": "False"
  },
  {
    "compound": "O=C(/C=C/c1ccc(O)c(O)c1)c1ccc(O[C@@H]2O[C@H](CO)[C@@H](O)[C@H](O)[C@H]2O)c(O)c1O",
    "category": "False"
  },
  {
    "compound": "COCCNCc1ccc(-c2cc3nccc(Oc4ccc(NC(=O)C5(C(=O)Nc6ccc(F)cc6)CC5)cc4F)c3s2)nc1",
    "category": "False"
  }
]

### Prompt Which result was noted for this compound in the test: `CC(C)NC(=O)COc1cccc(-c2nc(Nc3ccc4[nH]ncc4c3)c3ccccc3n2)c1`
### Response False

### Prompt Which result was noted for this compound in the test: `Cc1cc(C)c(CNC(=O)c2cc(-c3ccc(N4CCN(C)CC4)nc3)cc3c2c(C)cn3C(C)C)c(=O)[nH]1`
### Response False

### Prompt Which result was noted for this compound in the test: NC(=O)c1cccc2[nH]c(-c3ccc(C4CCCN4)cc3F)nc12 (stereo unspecified)
### Response True

### Prompt Which result was noted for this compound in the test: `FC(F)c1nc2ccccc2n1-c1nc(N2CCOCC2)nc(N2CCOCC2)n1`
### Response False

### Prompt Which result was noted for this compound in the test: `CN1CCC(COc2cnc(-c3cccc(Cn4nc(-c5cccc(C#N)c5)ccc4=O)c3)nc2)CC1`
### Response False

### Prompt Which result was noted for this compound in the test: `N#Cc1c(-c2ccccc2)cc(-c2cc(Br)ccc2O)[nH]c1=O`
### Response False

### Prompt Which result was noted for this compound in the test: `O=C(O)CNC(=O)C1=C(O)CCN(Cc2ccc(Oc3ccc(Cl)cc3)nc2)C1=O`
### Response False

### Prompt Which result was noted for this compound in the test: `Cc1cc(-c2ncc(CC(=O)Nc3ccc(-c4cnccn4)cn3)cc2C)ccn1`
### Response False

### Prompt Which result was noted for this compound in the test: `O=c1oc2cc(O)ccc2c2ccccc12`
### Response False

### Prompt Which result was noted for this compound in the test: `Nc1nc(N)c2nc(-c3cccc(O)c3)c(-c3cccc(O)c3)nc2n1`
### Response False

### Prompt Which result was noted for this compound in the test: O=C(O)CCCCC(CCSCc1ccccc1)SCc1ccccc1 (stereo unspecified)
### Response False

### Prompt Which result was noted for this compound in the test: `O=C(O)c1cccc(CN2C(=O)/C(=C(\c3ccccc3)c3ccc(Cl)cc3)c3ccccc32)c1`
### Response False

### Prompt Which result was noted for this compound in the test: `Cc1nc(C(=O)NCC(=O)O)c(O)c2ccc(Oc3ccccc3)cc12`
### Response False

### Prompt Which result was noted for this compound in the test: `Cc1c(-c2cnccn2)ssc1=S`
### Response False

### Prompt Which result was noted for this compound in the test: `COC(=O)c1ccc(OC(=O)CCCCCCC(=O)NO)cc1`
### Response False

### Prompt Which result was noted for this compound in the test: COc1cc(C(=O)N2C[C@H](N)CC[C@@H]2C)cc2nc(-c3cc4cccnc4n3CC3CC3)n(C)c12 [BMS-P5 (free base)]
### Response False

### Prompt Which result was noted for this compound in the test: `C[C@]12CCCN1CC1=NNC(=O)c3cc(F)cc4[nH]c2c1c34`
### Response True

### Prompt Which result was noted for this compound in the test: `Cc1cc(Nc2cc(CN3CCOCC3)c3nc(C)c(Cc4ccc(Cl)cc4F)n3n2)n[nH]1`
### Response False

### Prompt Which result was noted for this compound in the test: `COc1c(O)cc2oc(-c3ccccc3)cc(=O)c2c1O`
### Response False

### Prompt Which result was noted for this compound in the test: `Clc1cc2c(NC3CCCC3)nnc(-c3ccncc3)c2cc1Cl`
### Response False

### Prompt Which result was noted for this compound in the test: CCN(CC)Cc1cc(Nc2ccnc3cc(Cl)ccc23)ccc1O [Amodiaquine (dihydrochloride)]
### Response False

### Prompt Which result was noted for this compound in the test: `COc1cc(N2CCC(N3CCN(C)CC3)CC2)ccc1Nc1ncnc(Nc2ccccc2S(=O)(=O)C(C)C)n1`
### Response False

### Prompt Which result was noted for this compound in the test: CC/C(=C(\c1ccccc1)c1ccc(OCCNC)cc1)c1ccccc1 [N-Desmethyltamoxifen (hydrochloride)]
### Response False

### Prompt Which result was noted for this compound in the test: CCCCC[C@H](O)CC(=O)CCc1ccc(O)c(OC)c1 [[6]-Gingerol]
### Response False

### Prompt Which result was noted for this compound in the test: `CCNC(=O)NCCSC[C@H]1O[C@@H](n2cnc3c(N)ncnc32)[C@H](O)[C@@H]1O`
### Response False

### Prompt Which result was noted for this compound in the test: `COc1nn(C)cc1Nc1nccc(-c2c[nH]c3c(NC(=O)[C@@H](C)N4CCN(C)CC4)cccc23)n1`
### Response False

====

# system tested: PARP1 L713F-nLuc biosensor (HCT116)
# protocol details: PARP1 L713F-nLuc/akaLuc ratio relative to DMSO control (biosensor stabilization) (fold change); higher = more PARP1 biosensor stabilization (target engagement / stabilizer), active = hit call of the paper
# condition label: stock concentration (mM; final µM = stock mM x 1): 10; 24 h
measurement type: PARP1 L713F-nLuc/akaLuc ratio
Note: the reply should be a number with no unit written.

[
  {
    "compound": "O=C1COc2c(CCNCCN(C(=O)CCNCCc3ccc(Cl)c(Cl)c3)C3CCCCC3)ccc(O)c2N1 [AZ505 (ditrifluoroacetate)]",
    "value": 0.634
  },
  {
    "compound": "COc1cc(-c2cn(C)c(=O)c3cnccc23)cc(OC)c1CN1CCN(CCCCCOc2cc(-c3scnc3C)ccc2CNC(=O)[C@@H]2C[C@@H](O)CN2C(=O)[C@@H](NC(=O)C2(F)CC2)C(C)(C)C)CC1",
    "value": 0.634
  },
  {
    "compound": "O=C(Nc1ccccc1-c1cn2c(CN3CCNCC3)csc2n1)c1cnc2ccccc2n1",
    "value": 1
  },
  {
    "compound": "Cc1ccc(Oc2nc3cc(-c4ccc(-c5ccccc5)cc4)c(Cl)cc3[nH]2)cc1C(=O)O",
    "value": 0.635
  },
  {
    "compound": "O=C1COc2c(CCNCCN(C(=O)CCNCCc3ccc(Cl)c(Cl)c3)C3CCCCC3)ccc(O)c2N1",
    "value": 1.16
  }
]

Recorded PARP1 L713F-nLuc/akaLuc ratio (compound `Clc1ccc(-c2csc(NN=C3CCCC3)n2)cc1` ): 0.775

Recorded PARP1 L713F-nLuc/akaLuc ratio (compound `CN1CCN(c2ccc(C(=O)Nc3ccc([C@@H]4C[C@H]4N)cc3)cc2)CC1` ): 0.684

====

Recorded PARP1 L713F-nLuc/akaLuc ratio by entry
# system tested: PARP1 L713F-nLuc biosensor (HCT116)
# protocol details: PARP1 L713F-nLuc/akaLuc ratio relative to DMSO control (biosensor stabilization) (fold change); higher = more PARP1 biosensor stabilization (target engagement / stabilizer), active = hit call of the paper
# condition label: stock concentration (mM; final µM = stock mM x 1): 10; 24 h
Note: the reply should be a number with no unit written.

Consider the following illustrative entries.
[
  {
    "compound": "CCCCCC1CC1CC1CC1CCCCCCCC(=O)O (centres undefined)",
    "system tested": "PARP1 L713F-nLuc biosensor (HCT116)",
    "PARP1 L713F-nLuc/akaLuc ratio": 1.14
  },
  {
    "compound": "C[C@@H]1C[C@H]2[C@@H]3CCC4=CC(=O)C=C[C@]4(C)[C@@]3(F)[C@@H](O)C[C@]2(C)[C@@]1(O)C(=O)CO",
    "system tested": "PARP1 L713F-nLuc biosensor (HCT116)",
    "PARP1 L713F-nLuc/akaLuc ratio": 1.03
  },
  {
    "compound": "CC(=O)N1CCC(Nc2cc(C(=O)NC[C@H](O)CN3CCc4ccccc4C3)ncn2)CC1",
    "system tested": "PARP1 L713F-nLuc biosensor (HCT116)",
    "PARP1 L713F-nLuc/akaLuc ratio": 0.707
  }
]

Recorded PARP1 L713F-nLuc/akaLuc ratio (compound `CS(=O)(=O)N1CCN(Cc2cc3nc(-c4cccc5[nH]ncc45)nc(N4CCOCC4)c3s2)CC1` ): 0.659

Recorded PARP1 L713F-nLuc/akaLuc ratio (compound `O=C(Nc1ccc(Cl)cc1)c1cc2ccccc2cc1O` ): 1.09

Recorded PARP1 L713F-nLuc/akaLuc ratio (compound `CNc1nc(-c2ccc3c(N)n[nH]c3c2)cc(N2C[C@@H](C(=O)NC3CCCCC3)CC[C@H]2C)n1` ): 0.434

Recorded PARP1 L713F-nLuc/akaLuc ratio (compound `Cc1nc(N)nc(N)c1-c1ccc(Cl)c(Cl)c1` ): 0.685

Recorded PARP1 L713F-nLuc/akaLuc ratio (compound `CO[C@H]1CNC[C@@H](OCC2CCC(F)(F)CC2)[C@@H]1Nc1ncc(-c2cncc(C)c2)c2cc(C)c(=O)[nH]c12` ): 1.63

Recorded PARP1 L713F-nLuc/akaLuc ratio (compound `CCS(=O)(=O)N1CCN(c2ccc(Nc3ncc(C(N)=O)c(NC4CC4)n3)cc2)CC1` ): 1.99

Recorded PARP1 L713F-nLuc/akaLuc ratio (compound `COc1cc2ncnc(Nc3ccc(O)cc3)c2cc1OC` ): 0.842

Recorded PARP1 L713F-nLuc/akaLuc ratio (compound `COc1cc2c(NC3CCN(C(C)C)CC3)nc(C3CCCCC3)nc2cc1OCCCN1CCCC1` ): 0.748

Recorded PARP1 L713F-nLuc/akaLuc ratio (compound `CC#CC(=O)N1CCC[C@H]1c1nc(-c2ccc(C(=O)Nc3ccccn3)cc2)c2c(N)nccn12` ): 1.28

Recorded PARP1 L713F-nLuc/akaLuc ratio (compound `COCCCc1sc(-c2ccccc2)nc1C(=O)Nc1ccccc1-c1nc2cc(CN3CCCC3)cnc2s1` ): 0.737

Recorded PARP1 L713F-nLuc/akaLuc ratio (compound CNS(=O)(=O)C[C@H]1CC[C@H](N(C)c2[nH]cnc3nccc2-3)CC1 [Oclacitinib (maleate)] ): 0.749

Recorded PARP1 L713F-nLuc/akaLuc ratio (compound `CCN(CC)c1ccc(C=NNC(=O)c2ccncc2)c(O)c1` ): 0.543

Recorded PARP1 L713F-nLuc/akaLuc ratio (compound `Cc1nn2c([nH]c(=O)c3cccnc32)c1C#N` ): 0.851

Recorded PARP1 L713F-nLuc/akaLuc ratio (compound `Cc1ncccc1-c1cnc(NCc2c(F)ccc3c2CCO3)n2cnnc12` ): 1.39

Recorded PARP1 L713F-nLuc/akaLuc ratio (compound `NC(=O)c1cc(F)cc2c1C(=O)N(C1CCN(C3CCC(F)(F)CC3)CC1)C2` ): 6

Recorded PARP1 L713F-nLuc/akaLuc ratio (compound `C[C@H](Nc1ncnc2[nH]cnc12)c1cc2ccc(F)cc2nc1-c1ccccn1` ): 0.767

Values from the supplement of paper PMC11624193
